target: D(2) dopamine receptor (Bos taurus); test: Affinity for Dopamine receptor D2 using [3H]YM-09151-2 was carried out on bovine retinal membrane preparations (low-affinity); set-up: species or system Retina
Sequence (P20288 whole entry): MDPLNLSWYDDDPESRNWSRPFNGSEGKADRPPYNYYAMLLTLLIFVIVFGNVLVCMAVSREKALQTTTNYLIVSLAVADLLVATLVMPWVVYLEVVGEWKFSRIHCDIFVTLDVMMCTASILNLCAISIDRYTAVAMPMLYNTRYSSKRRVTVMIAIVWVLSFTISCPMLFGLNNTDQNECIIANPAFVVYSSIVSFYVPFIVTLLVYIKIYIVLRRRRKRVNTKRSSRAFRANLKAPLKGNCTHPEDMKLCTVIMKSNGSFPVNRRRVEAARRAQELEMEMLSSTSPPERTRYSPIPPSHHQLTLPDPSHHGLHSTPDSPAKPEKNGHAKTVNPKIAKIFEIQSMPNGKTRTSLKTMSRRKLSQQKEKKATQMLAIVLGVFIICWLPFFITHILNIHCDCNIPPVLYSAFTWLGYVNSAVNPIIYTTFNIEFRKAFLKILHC
measure: pKi
Scale note: pKi = -log10(concentration in M).

Give the measured pKi of CCCN1CCCC(C2CCCCC2)C1 (stereo not given) . 4.60

Which pKi value is on record for `Cc1cccc(C(=O)NCN2CCN(c3ccccc3C#N)CC2)c1` ? 5.20

Could you share which pKi value was measured for CCCN1CCCC(c2ccc(C)cc2)C1 (stereo not given) ? 4.45

Please give the measured pKi for this molecule: CCCN1CCCC(C2CCC(C)CC2)C1 (stereo not given) 4.19

Can you share its pKi? I mean this molecule: CCCN1CCCC(c2ccc(C)c(C)c2)C1 (stereo not given) 5.12

What pKi value was documented for this molecule, CCCN1CCCC(c2ccccc2C)C1 (stereo not given) ? 4.57

Given CCCN1CCCC(C2CCCCC2C)C1 (stereo not given) , state its recorded pKi. 4.36

GET /values?readout=pKi&item= CCCN1CCCC(c2ccccc2)C1 (stereo not given) 4.36

Please report the recorded pKi for CCCN1CCCC(C2CCCC(C)C2)C1 (stereo not given) . 4.57

Return reported pKi; argument: CCCN1CCCC(c2cccc(C)c2)C1 (stereo not given) 4.80

Reference source: ChEMBL document CHEMBL1145978
